# Kd per entry
Target: T1, Glycoprotein VI extracellular domain (Gln21-Lys267) (Homo sapiens, UniProt Q9HCN6 SEQ:1-247)
T1 chain: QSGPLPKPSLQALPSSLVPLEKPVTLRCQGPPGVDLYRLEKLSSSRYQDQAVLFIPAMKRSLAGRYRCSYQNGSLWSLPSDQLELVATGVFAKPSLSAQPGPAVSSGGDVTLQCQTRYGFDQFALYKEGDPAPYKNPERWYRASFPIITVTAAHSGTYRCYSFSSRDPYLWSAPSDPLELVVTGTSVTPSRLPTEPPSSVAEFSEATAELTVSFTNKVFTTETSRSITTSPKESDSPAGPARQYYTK
Experiment: competition; competition with radiolabeled parent
Details: tags: C-terminal His6; R&D Systems 3627-GP
Report the value in nM with no unit label.

# Binder, Unit Abbrev, Kd
records = [
    ("GGAGGACGGCGCGCCUGGCAUAAGCCUCC (ssRNA, RB542 with 5' branched 40 kDa PEG) [RB570]", "nM", 15.5),
]

Complete the entry with Kd for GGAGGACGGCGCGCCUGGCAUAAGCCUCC (ssRNA, RB540 with 2'-OMe G1 and 5' hexylamino linker) [RB542]
15.5
